Below is a list of entries, each paired with its recorded log10 MIC value.
- Test system: Serratia marcescens ATCC 27117
- ASSAY_DETAILS: Antibacterial activity, MIC
- Format: cell-based
- CONDITION_CONTEXT: ATCC27117, ATCC 27117, agar two-fold dilution, 37° C., 20 hours, read-out: MIC
On a log10 scale: recorded MIC, unit µg/mL.

Known results for compounds:
CC[n+]1c(SCC2=C(C(=O)[O-])N3C(=O)C(NC(=O)/C(=N\OC(C)(C)C(=O)O)c4csc(N)n4)C3SC2)nc(N)c(C)c1N (stereo not shown) [Compound I-32]: -0.89
CC[n+]1c(N)cc(N)nc1SCC1=C(C(=O)[O-])N2C(=O)C(NC(=O)/C(=N\OC(C)C(=O)O)c3csc(N)n3)C2SC1 (stereo not shown) [Compound I-5]: -1.20
CCC[n+]1c(N)cc(N)nc1SCC1=C(C(=O)[O-])N2C(=O)C(NC(=O)/C(=N\OC(C)(C)C(=O)O)c3nsc(N)n3)C2SC1 (stereo not shown) [Compound I-28]: -0.60
CC[n+]1c(N)cc(N)nc1SCC1=C(C(=O)[O-])N2C(=O)C(NC(=O)/C(=N\OCC(=O)O)c3csc(N)n3)C2SC1 (stereo not shown) [Compound I-8]: -1.51
CCc1c(N)nc(SCC2=C(C(=O)[O-])N3C(=O)C(NC(=O)/C(=N\OC(C)(C)C(=O)O)c4csc(N)n4)C3SC2)[n+](CC)c1N (stereo not shown) [Compound I-33]: -0.30

Task item: Give the measured log10 MIC of CC(C)(O/N=C(\C(=O)NC1C(=O)N2C(C(=O)[O-])=C(CSc3nc(N)cc(N)[n+]3N)CS[C@H]12)c1csc(N)n1)C(=O)O (stereo partly shown) [Compound I-15] .
Reply: -1.20

Task item: Please give the result for CO/N=C(\C(=O)NC1C(=O)N2C(C(=O)[O-])=C(CSc3nc(N)cc(N)[n+]3N)CSC12)c1csc(N)n1 (stereo not shown) [Compound I-19] too.
Reply: -0.60

Task item: Now the compound C=CCO/N=C(\C(=O)NC1C(=O)N2C(C(=O)[O-])=C(CSc3nc(N)cc(N)[n+]3C)CSC12)c1csc(N)n1 (stereo not shown) [Compound I-49]
Reply: -0.30

Task item: Entry to check: C#CCO/N=C(\C(=O)NC1C(=O)N2C(C(=O)[O-])=C(CSc3nc(N)cc(N)[n+]3N)CSC12)c1csc(N)n1 (stereo not shown) [Compound I-18]
Reply: -0.89

Task item: Could you do the same for CCO/N=C(\C(=O)NC1C(=O)N2C(C(=O)[O-])=C(CSc3nc(N)cc(N)[n+]3N)CSC12)c1nsc(N)n1 (stereo not shown) [Compound I-17] , please?
Reply: -0.60

Task item: Same again, this time with CCO/N=C(\C(=O)NC1C(=O)N2C(C(=O)[O-])=C(CSc3nc(N)cc(N)[n+]3-c3ccc(Cl)cc3)CSC12)c1csc(N)n1 (stereo not shown) [Compound I-40]
Reply: 0.00

Task item: Now try C[n+]1c(N)cc(N)nc1SCC1=C(C(=O)[O-])N2C(=O)C(NC(=O)/C(=N\OC(C)(C)C(=O)O)c3csc(N)n3)[C@H]2SC1 (stereo partly shown) [Compound I-1] .
Reply: -1.20

Task item: Consider next the compound C=CC[n+]1c(N)cc(N)nc1SCC1=C(C(=O)[O-])N2C(=O)C(NC(=O)/C(=N\OCC(=O)O)c3csc(N)n3)C2SC1 (stereo not shown) [Compound I-9] in the same way.
Reply: -1.20
